test system: L1210; assay: Concentration required to inhibit 50% proliferation of cultured lymphoid leukemia L1210 cells was measured; assay type: functional, cell-based; details: Mus musculus
Listed below: IC50 values for each entry.
The answer is to be given in µM; state only the numeric part.

Some entries whose results are on file:
Find the recorded IC50 belonging to CCOC(=O)Nc1cc2nc(O)c(-c3ccccc3)nc2c(N)n1 and report it. 0.042

Likewise for CCOC(=O)Nc1cc2ncc(-c3ccccc3)nc2c(N)n1 ? 0.3

Could you do the same for COC(=O)Nc1cc(N)c2c(c1)NCC(c1ccccc1)=N2 , please? 24

Here's the next entry for you.
State the recorded IC50 for this entry: COC(=O)Nc1cc(N)c2nc(-c3ccccc3)c(O)nc2c1 0.75

---

test system: L1210; assay: Concentration required to inhibit 50% proliferation of cultured lymphoid leukemia L1210 cells was measured; assay type: functional, cell-based; conditions: Mus musculus
measured.property: IC50

Known results for compounds:
Under L1210: IC50 value of CCOC(=O)c1cc(N)c2nc(-c3ccccc3)cnc2c1 ? > 100 µM

Would you mind doing CCOC(=O)Nc1cc2c(c(N)n1)NC(c1ccccc1)=NN2 as well? > 10 µM

Follow-up item: CCOC(=O)c1cc(N)c2c(c1)NCC(c1ccccc1)=N2 > 100 µM

CCOC(=O)Nc1cc2nc(N)c(-c3ccccc3)nc2c(N)n1 , same question. > 30 µM

Try CCOC(=O)Nc1cc2nnc(-c3ccccc3)nc2c(N)n1 next. > 10 µM

Turning now to a further record.
State its IC50 on L1210: COC(=O)Nc1cc(N)c2nc(-c3ccccc3)cnc2c1 > 100 µM
